FYI, the data here is from ChEMBL document CHEMBL1201862.

tested on: NCI-H460; test: NCI tumour cell line growth inhibition, 48 h
Calls of active or inactive are those of the source. Cut-off read from the data, not from the text of the source: active = GI50 up to about 1.1 µM and inactive = higher.
# output must be one of active, inactive

Example entries begin here.
CN(C)/C=C/c1nnc([N+](=O)[O-])s1
inactive
COC(=O)C1C(=O)N(C)C(=O)N2CCCC12 (stereo unspecified)
inactive
Cc1cc(C)c2c(c1)N[S@@](=O)S2
inactive
CC1(O)CCC(C(C)(C)O)CC1 (stereo unspecified) [TERPIN]
inactive
CCn1cc(C(=O)O)c(=O)c2cc(F)c(N3CCN(CN4C(=O)/C(=N\NC(=O)c5ccncc5)c5cc(Cl)ccc54)CC3)cc21
inactive
O=[N+]([O-])c1cccc2nc3ccccc3c(NCCCNc3c4ccccc4nc4cccc([N+](=O)[O-])c34)c12
active
COCn1c(C)c(C)c2c(=O)oc(C)nc21
inactive
COc1ccc2c(c1)[n+]([O-])c(-c1c(Cl)cccc1Cl)c(N)[n+]2[O-]
inactive

Input line: // return assay outcome for Clc1ccccc1/C=C/c1ccnc2ccccc12
Output line: inactive

Input line: Then CCC1C(=O)OCc2c1cc1n(c2=O)C(CC)c2c-1nc1ccccc1c2Cl (stereo unspecified) ?
Output line: inactive

Input line: Same read-out for COC(=O)CCC(=O)NC1C2CC3CC(C2)CC1C3 (stereo unspecified) ?
Output line: inactive

---

tested on: IGROV-1; test: NCI tumour cell line growth inhibition, 48 h
Activity calls are given as the source filed them. Rule as the data show it: active = GI50 up to about 1.1 µM and inactive = higher.
measurement_label: GI50

Guide cases for GI50, answers given:
O=c1[nH]c2ccsc2c(=O)n1COCc1ccccc1
> 100 µM (inactive)
CCC1(C(=O)OC(C)(C)C)OC12C(C)CCCC2C (centres undefined)
> 100 µM (inactive)
CCNC(C)Cc1ccccc1 (centres undefined)
> 100 µM (inactive)

Input line: Can you look up GI50 on IGROV-1 for O=C(Nc1nc(C23CC4CC(CC(C4)C2)C3)cs1)c1cc2ccccc2oc1=O ?
Output line: > 100 µM (inactive)

Input line: Again, but for C/C(=C/CO[Si](C)(C)C(C)(C)C)C(=O)N(C)c1ccccc1I
Output line: 16 µM (inactive)

Input line: Record: O=C(CCN(C(=O)O)S(=O)(=O)c1ccc(NC(=O)c2ccccc2)cc1)NC1CCCCC1
Output line: > 100 µM (inactive)

Input line: Same read-out for CCCCCCCCC/C=C1/CC(CO)(COC(=O)CC(C(C)C)C(C)C)OC1=O (centres undefined) ?
Output line: 15.4 µM (inactive)

Input line: Another compound to check: O=[N+]([O-])/C=C/c1c(Cl)cccc1Cl
Output line: 3.65 µM (inactive)

Input line: Queued: CN(C)c1cccc2c1C(=O)C=CC21c2ccc(N(C)C)c3c(N(C)C)ccc(c23)C(c2ccccc2)C1c1ccccc1 (centres undefined)
Output line: 12 µM (inactive)

Input line: Also C/C(CC(=O)Nc1ccc(NC(=O)/C(C)=N/NS(=O)(=O)c2ccc(C)cc2)cc1)=N\NS(=O)(=O)c1ccc(C)cc1 ?
Output line: > 100 µM (inactive)

---

Examples of molecules with documented GI50 follow.
system: MCF7; experiment: NCI tumour cell line growth inhibition, 48 h
The source made the active and inactive calls. Cut-off read from the data, not from the text of the source: active = GI50 up to about 1.1 µM and inactive = higher. Peptide text beside a SMILES is read from it. * marks the point of attachment. Trt = c1ccc(C(c2ccccc2)(c2ccccc2)*)cc1; Cbz = O=C(OCc1ccccc1)*

CC(=O)O[C@H]1CC[C@@]2(C)C(=CC[C@H]3[C@@H]4C/C(=C\c5ccncc5)[C@H](OC(C)=O)[C@@]4(C)CC[C@@H]32)C1
14.7 µM (inactive)
COc1cc2nc(-c3cccs3)nc(Nc3ccccc3C(=O)NN)c2cc1OC
> 100 µM (inactive)
COc1cc(C[C@@H](C)N)cc(OC)c1
> 100 µM (inactive)
COC(=O)C(CO)NC(=O)C(CSC(c1ccccc1)(c1ccccc1)c1ccccc1)NC(=O)OCc1ccccc1 (stereo not drawn) (Cbz-Cys(Trt)-Ser-OMe; configuration not given here)
14.8 µM (inactive)
COC(=O)[C@]1(C)CCC[C@]2(C)[C@@H](CCC(=O)C(C)C)[C@]3(C=O)O[C@@H]3C[C@H]21
33.4 µM (inactive)
CCCCCCCCCCCC[C@@H](O)[C@H]1CC[C@H]([C@H](O)CCCC[C@H](O)CCCCC[C@@H](O)CC2=C[C@H](C)OC2=O)O1
1.64 µM (inactive)
CC(=O)N[C@@H](Cc1ccc(O)cn1)C(=O)NC1CCCCC1
> 100 µM (inactive)

Now turn to the next molecule.
Input line: For the molecule CC(=O)NC1=C(OS(=O)(=O)c2ccc(C)cc2)CN(C)C1=O , what GI50 is on record?
Output line: 2.89 µM (inactive)
